Value source: patent US20140161803A1

# % max inhibition (veh. pre-treat.) listing for each entry below
targetSystem: wild-type human uPAR (human, UniProt Q03405 23-305, GPI-anchor on Gly283)
Sequence (Q03405 23-305): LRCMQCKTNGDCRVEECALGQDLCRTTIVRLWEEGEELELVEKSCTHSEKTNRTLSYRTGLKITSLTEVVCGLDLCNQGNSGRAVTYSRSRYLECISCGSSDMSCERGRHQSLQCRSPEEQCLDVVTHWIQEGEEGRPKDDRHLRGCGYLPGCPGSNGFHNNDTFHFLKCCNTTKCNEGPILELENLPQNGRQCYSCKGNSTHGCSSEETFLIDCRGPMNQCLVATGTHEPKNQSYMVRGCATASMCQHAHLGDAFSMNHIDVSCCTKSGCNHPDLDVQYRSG
experimentNotes: cell-based or functional assay
Give a bare numeral; the unit % is implied.

BE18 (antibody, mouse IgG1, V domains shown) VH: ELVKPGASVKIICKASGYIFTDYNMDWVKQSHGKSLEWIGEINPNNGDTIYNQNFKGKATLTVDKSSSTAHMALRSLTSEDTAVYYCTRKGGLRAWFVYWGQGTLVTVS VL: MSASPGEKVTMTCRASSSVSSSYLHWYQQKSGASPKVWIYSTSNLASGVPARFSGSGSGTSYSLTISSVEAEDAATYYCQQYSGYPLTFGSGTKLEIQ    37

Q: Could you tell me which % max inhibition (veh. pre-treat.) is on file for 19.10 (antibody, V domains shown) VH: ELVKPGASVKLSCKATGYTFTVYWMEWVRQRPGHGLEWIGEILPGSGRTNYNERFKGKATFTADTSSNTAYMQLSSLTTEDSAIYYCARDYSGDTSTGYFDVWGTGTTVTVS VL: SLSASLGERVSLTCRASQDIGSGLSWLQQEPDGTIKRLIYATSSLDSGVPKRFSGSRSGSDYSLTISSLESEDFVDYYCLQYATSPYTFGGGTKLEIKR ?
Result: 67
